# Assayed system: SHP2 protein (Homo sapiens)
# Sequence (Q06124 whole entry): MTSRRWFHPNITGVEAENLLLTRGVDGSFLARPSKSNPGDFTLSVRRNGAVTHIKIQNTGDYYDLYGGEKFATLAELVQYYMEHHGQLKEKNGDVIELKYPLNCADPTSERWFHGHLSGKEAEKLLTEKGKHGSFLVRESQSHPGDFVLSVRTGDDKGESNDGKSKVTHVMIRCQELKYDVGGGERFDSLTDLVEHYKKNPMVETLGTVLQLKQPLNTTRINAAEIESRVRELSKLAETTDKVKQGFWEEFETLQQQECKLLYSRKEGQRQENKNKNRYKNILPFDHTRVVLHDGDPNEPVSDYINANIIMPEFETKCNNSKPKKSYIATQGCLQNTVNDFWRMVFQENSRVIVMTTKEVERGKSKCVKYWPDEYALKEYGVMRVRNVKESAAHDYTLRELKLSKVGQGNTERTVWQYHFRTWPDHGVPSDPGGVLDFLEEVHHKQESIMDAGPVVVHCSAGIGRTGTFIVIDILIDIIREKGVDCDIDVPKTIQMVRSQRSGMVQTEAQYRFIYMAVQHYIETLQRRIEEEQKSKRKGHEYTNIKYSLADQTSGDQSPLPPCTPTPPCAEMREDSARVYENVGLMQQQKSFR
# Assay details: Degradation activity on SHP2 protein in MIA Paca-2 cells (Western blot, DC50)
# Format: cell-based
# Design: endogenous in cells; host or cells: MIA Paca-2 cells
# Setup conditions: read-out: Degradation activity for differenct cell lines MIA Paca-2 (DC50)
Property name: DC50

{"Compound": "C[C@@H]1OCC2(CCN(c3cnc(Sc4cccc(NC(=O)C5CC6(C5)CC(N5CC=C(c7ccc(C(=O)NCc8ccc9c(c8)CN(C8CCC(=O)NC8=O)C9=O)nc7)CC5)C6)c4)cn3)CC2)[C@@H]1N (stereo partly shown) [Compound 473]", "Property name": "DC50", "Val": "< 100 nM"}
{"Compound": "C[C@@H]1OCC2(CCN(c3cnc(Sc4cccc(NC(=O)C5CCC(N6CC7(CCN(c8ccc(C(=O)NCc9ccc%10c(c9)CN(C9CCC(=O)NC9=O)C%10=O)cn8)C7)C6)CC5)c4)cn3)CC2)[C@@H]1N (stereo partly shown) [Compound 489]", "Property name": "DC50", "Val": "> 1000 nM"}
{"Compound": "CC1(N)CCN(c2cnc(Sc3cccc(NC(=O)c4ccc(N5CCC(N6CCN(c7ccc(C(=O)NCc8ccc9c(c8)CN(C8CCC(=O)NC8=O)C9=O)nn7)CC6)CC5)nc4)c3)cn2)CC1 (stereo not shown) [Compound 437]", "Property name": "DC50", "Val": "< 100 nM"}
{"Compound": "CC1(N)CCN(c2cnc(Sc3cccc(NC(=O)c4ccc(N5CCC(N6CCN(c7ccc(C(=O)NCc8ccc9c(c8)CN(C8CCC(=O)NC8=O)C9=O)nc7)CC6)CC5)cc4)c3)cn2)CC1 (stereo not shown) [Compound 395]", "Property name": "DC50", "Val": "< 100 nM"}

State recorded DC50 for all listed compounds.
1. CC1(N)CCN(c2cnc(Sc3cccc(NC(=O)CCCCCCOC4CC5CN(c6ccc(C(=O)NCc7ccc8c(c7)CN(C7CCC(=O)NC7=O)C8=O)nn6)CC5C4)c3)cn2)CC1 (stereo not shown) [Compound 183]
2. C[C@H](N)C(=O)N[C@@H](Cc1ccccc1)C(=O)NC1(C)CCN(c2cnc(Sc3cccc(NC(=O)c4ccc(N5CCC(N6CC=C(c7ccc(C(=O)NCc8ccc9c(c8)CN(C8CCC(=O)NC8=O)C9=O)nc7)CC6)CC5)cc4)c3)cn2)CC1 (stereo partly shown) [Compound 427]
3. CC1(N)CCN(c2cnc(Sc3cccc(NC(=O)c4ccc(N5CCC(N6CC=C(c7cnc(C(=O)NCc8ccc9c(c8)CN(C8CCC(=O)NC8=O)C9=O)c(Cl)c7)CC6)CC5)cc4)c3)cn2)CC1 (stereo not shown) [Compound 400]
4. CC1(N)CCN(c2cnc(Sc3cccc(NC(=O)C4(c5ccc(N6CCN(c7ccc(C(=O)NCc8ccc9c(c8)CN(C8CCC(=O)NC8=O)C9=O)nc7)CC6)cc5)CC4)c3)cn2)CC1 (stereo not shown) [Compound 332]
5. CC1(N)CCN(c2cnc(Sc3cccc(NC(=O)c4ccc(N5CCC(N6CC=C(c7cnc(C(=O)NCc8ccc9c(c8)CN(C8CCC(=O)NC8=O)C9=O)cn7)CC6)CC5)cc4)c3)cn2)CC1 (stereo not shown) [Compound 371]
6. CC1(N)CCN(c2cnc(Sc3cccc(NC(=O)CCCCCCCCN4CCC(c5ccc(C(=O)NCc6ccc7c(c6)CN(C6CCC(=O)NC6=O)C7=O)nn5)CC4)c3)cn2)CC1 (stereo not shown) [Compound 218]

1. > 1000 nM
2. > 1000 nM
3. < 100 nM
4. > 1000 nM
5. 100 to 1000 nM
6. < 100 nM
